# system name: BV2589 (recombinant CoV S glycoprotein, BQ.1.1) (SARS-CoV-2, UniProt P0DTC2 14-1273)
# assay explanation: hACE2 receptor inhibition ELISA on coated rS; competitor hACE2-His

binder	IC50
35.13 (antibody, V domains shown) VH: QVQLQQSGAELGKPGASVKLSCRASGYTFTRYYIYWVKQRPGQGLEWIGEINPSNGDTHFNEKFKTKATLTVDKSSSSAHIHLTSLTSEDSAVYYCSIHAYSFDFWGQGTTLTVSS VL: EIQMTQSPSSMSASLGDRITITCQATQDIVKNLNWYQQKPGKPPSFLIYHATELAKGVPSRFSGSGSGSDYSLTISNLESEDFADYYCLQFYDFPFTFGAGTKLELKR	> 3 µg/mL
